biological target: PIK3CD (Human); assay: Assessment of PIK3CD Kinase Activity (Scintillation Proximity Assay)
pIC50: −log10 of the molar value.

>  <Compound>
CCOc1c(C(C)n2nc(CNC)c3c(N)ncnc32)cc(Cl)c(C)c1-c1ccc(C(=O)N(C)C)nc1 (stereo not drawn)

>  <pIC50>
6.70 to 7.30

$$$$
>  <Compound>
COc1c(C(C)n2ncc3c(N)ncnc32)cc(Cl)c(C)c1-c1ccnc(C(=O)NCCO)c1 (stereo not drawn)

>  <pIC50>
6.70 to 7.30

$$$$
>  <Compound>
CCOc1c(C(C)n2nc(-c3cnc(N)nc3)c3c(N)ncnc32)cc(Cl)c(C)c1-c1ccc(C(=O)N(C)C)nc1 (stereo not drawn)

>  <pIC50>
≥ 8.00

$$$$
>  <Compound>
CCOc1c(C(C)n2nc(C)c3c(N)ncnc32)cc(Cl)c(C)c1-c1cncc(C(=O)N(C)C)c1 (stereo not drawn)

>  <pIC50>
≥ 8.00

$$$$
>  <Compound>
COc1c(C(C)n2nc(C)c3c(N)ncnc32)cc(Cl)c(C)c1C1CN(C(C)C)C1 (stereo not drawn)

>  <pIC50>
≥ 8.00

$$$$
>  <Compound>
COc1c(C(C)n2nc(C(F)F)c3c(N)ncnc32)cc(C#N)c(C)c1C1CN(CC(C)(C)O)C1 (stereo not drawn)

>  <pIC50>
≥ 8.00

$$$$
>  <Compound>
CCOc1c(C(C)n2nc(C)c3c(N)ncnc32)cc(C)c(C#N)c1-c1ccc(C(=O)N(C)C)nc1 (stereo not drawn)

>  <pIC50>
≥ 8.00

$$$$
>  <Compound>
COc1c(C(C)n2nc(C)c3c(N)ncnc32)cc(Cl)c(C)c1C1CC1 (stereo not drawn)

>  <pIC50>
7.30 to 8.00

$$$$
>  <Compound>
CCOc1c(C(C)n2nc(C(F)F)c3c(N)ncnc32)cc(Cl)c(F)c1C1CN(CCO)C1 (stereo not drawn)

>  <pIC50>
≥ 8.00

$$$$
>  <Compound>
COc1c(C(C)n2nc(C)c3c(N)ncnc32)cc(Cl)c(F)c1C1CN(CC(C)(C)O)C1 (stereo not drawn)

>  <pIC50>
≥ 8.00

$$$$
>  <Compound>
COc1c(C(C)n2nc(C)c3c(N)ncnc32)cc(Cl)c(C#N)c1C1CN(C2COC2)C1 (stereo not drawn)

>  <pIC50>
≥ 8.00

$$$$
>  <Compound>
CCOc1c(C(C)n2nc(C)c3c(N)ncnc32)cc(Cl)c(F)c1C1CN(CC(F)F)C1 (stereo not drawn)

>  <pIC50>
≥ 8.00

$$$$
>  <Compound>
CCOc1c(C(C)n2nc(C)c3c(N)ncnc32)cc(Cl)c(C)c1C#N (stereo not drawn)

>  <pIC50>
≥ 8.00

$$$$
>  <Compound>
COc1c(C(C)n2nc(C)c3c(N)ncnc32)cc(Cl)c(C#N)c1C1CN(S(=O)(=O)C2CC2)C1 (stereo not drawn)

>  <pIC50>
≥ 8.00

$$$$
>  <Compound>
CCOc1c(C(C)n2nc(C)c3c(N)ncnc32)cc(C)c(C#N)c1C1CN(C(=O)C(C)(C)O)C1 (stereo not drawn)

>  <pIC50>
≥ 8.00

$$$$
>  <Compound>
COc1c(C(C)n2nc(C)c3c(N)ncnc32)cc(Cl)c(C#N)c1C1CN(CCO)C1 (stereo not drawn)

>  <pIC50>
≥ 8.00

$$$$
>  <Compound>
CCOc1c(C(C)n2nc(C)c3c(N)ncnc32)cc(Cl)c(C#N)c1-c1ccc(C2=[N+][N+]=C(C)O2)nc1 (stereo not drawn)

>  <pIC50>
≥ 8.00

$$$$
>  <Compound>
CCOc1c(C(C)n2nc(C)c3c(N)ncnc32)cc(Cl)c(F)c1C1CN(C(C)C)C1 (stereo not drawn)

>  <pIC50>
≥ 8.00

$$$$
